assay_text: Toxicity on the Artemia franciscana Kellog crustacean species (lethality of nauplii)
Type: in vivo
condition_context: Artemia franciscana Kellog (brine shrimp nauplii), in vivo, other: nauplii placed in contact with the test suspensions, four-parameter logistic model
measured_quantity: LC50 at 24 h

{"columns": ["chemical_smiles", "measured_quantity", "result"],
 "data": [
  ["O=C(Nc1ccc(Cl)c(Cl)c1)ON=C1c2ccccc2-c2ccccc21", "LC50 at 24 h", "14.6 µg/mL"]
]}

====

Test system: E. faecalis ATCC 29212
assay_text: MBC assay, plating on solid medium after MIC reading
Type: cell-based
condition_context: Enterococcus faecalis, ATCC29212, read-out: minimum bactericidal concentration (MBC)
Some compounds, each annotated with its measured MBC.
measured_quantity: MBC

{"columns": ["chemical_smiles", "measured_quantity", "result"],
 "data": [
  ["Cc1cccc(NC(=O)ON=C2c3ccccc3-c3ccccc32)c1", "MBC", "10000 µg/mL"],
  ["O=C(Nc1ccccc1)ON=C1c2ccccc2-c2ccccc21", "MBC", "5000 µg/mL"],
  ["O=C(Nc1ccc(Cl)c(Cl)c1)ON=C1c2ccccc2-c2ccccc21", "MBC", "5000 µg/mL"],
  ["O=C(Nc1cccc(Cl)c1)ON=C1c2ccccc2-c2ccccc21", "MBC", "5000 µg/mL"]
]}
